- Test system: Talaromyces funiculosus
- assay.method.text: Antifungal activity against Penicillium funiculosum ATCC 36839 after 72 hrs by serial dilution technique
- Assay type: functional
- conditions.used: ATCC 36839, 72 h
parameter.measured: MIC (µM)
Only the number, expressed in µM, is required.

Some compounds with known MIC results, for comparison:
>  <compound>
CCNc1nc(C)c(C(=O)/C=C/c2ccccc2)s1

>  <tgt>
Talaromyces funiculosus

>  <units.symbol>
µM

>  <MIC>
36.8

$$$$
>  <compound>
CC(=O)N1CCN(c2ccc(OCC3COC(Cn4ccnc4)(c4ccc(Cl)cc4Cl)O3)cc2)CC1 (stereo not drawn)

>  <tgt>
Talaromyces funiculosus

>  <units.symbol>
µM

>  <MIC>
380

$$$$

Let us move to another entry and its MIC.
Entry `CNc1nc(C)c(C(=O)/C=C/c2cccc(Cl)c2Cl)s1` ; MIC = 30.6
